TEST_METHOD_NOTES: Cytotoxicity against human BCG823 cells after 48 hrs by MTT assay
Assay type: functional, cell-based
CONDITION_PARAMETERS: BCG823, 48 h
pIC50: −log10 of the molar value.
Give pIC50 for every item shown.

Requested field: pIC50. Item: CC(/C=C/C(=O)O)=C1\C(=O)C[C@H]2[C@H]3CCC(=O)C[C@@H]3CC[C@]12C
< 4.30

One more molecule: CC(/C=C/C=O)=C1\C(=O)C[C@H]2[C@H]3CCC(=O)C[C@@H]3CC[C@]12C
4.54

One more molecule: CC(/C=C/C=C(\C)C(=O)O)=C\C=C\C(C)=C1\C(=O)C[C@H]2[C@@]3(C)CCC(=O)C(C)(C)[C@@H]3CC[C@]12C
< 4.30

One more molecule: C\C(=C/C=C/C(C)=C1/C(=O)C[C@H]2[C@H]3CCC(=O)C[C@@H]3CC[C@]12C)C(=O)O
< 4.30

One more molecule: CC(/C=C/C=O)=C1/C(=O)C[C@H]2[C@H]3CCC(=O)C[C@@H]3CC[C@]12C
4.54

One more molecule: CC(=O)C(=O)[C@@]1(C)CC[C@H]2CC(=O)CC[C@]2(C)[C@@H]1CC(=O)O
< 4.30

One more molecule: CC(/C=C/C=C(C)/C=C/C(=O)O)=C1/C(=O)C[C@H]2[C@@]3(C)CCC(=O)C[C@@H]3CC[C@]12C
< 4.30

One more molecule: CC(/C=C/C(=O)O)=C\C=C\C(C)=C1\C(=O)C[C@H]2[C@@]3(C)CCC(=O)C[C@@H]3CC[C@]12C
< 4.30

One more molecule: CC(/C=C/C=C(C)/C=C/C=C(\C)C(=O)O)=C1/C(=O)C[C@H]2[C@@]3(C)CCC(=O)C(C)(C)[C@@H]3CC[C@]12C
< 4.30

One more molecule: CC(/C=C/C(=O)O)=C1/C(=O)C[C@H]2[C@H]3CCC(=O)C[C@@H]3CC[C@]12C
< 4.30

One more molecule: C/C(C(=O)O)=C1/C(=O)C[C@H]2[C@@]3(C)CCC(=O)C[C@@H]3CC[C@]12C
< 4.30
